system: HCT-15 colon; experiment: NCI tumour cell line growth inhibition, 384-well format; in the data active means GI50 below about 0.43 µM; inactive means the rest
Hi! Could you answer with just one of these? active, inactive

Query :: Per the records of this test, what outcome belongs to "Cc1c(NC(=O)OC[C@@H]2COCCN2)cn2ncnc(Nc3ccc4c(cnn4Cc4cccc(F)c4)c3)c12" ?
Result :: inactive

Query :: Input "Cc1ccc(S(=O)(=O)Cc2nc(-c3ccc(C(=O)NCc4cccnc4)cc3)oc2C)cc1"
Result :: active

Query :: And then "COc1ccccc1S(=O)(=O)Nc1ccc2c(c1)CN(C)C(=O)N2" , what is it?
Result :: active

Query :: Same question for "O=C(O)c1ccc2c(c1)nc(Nc1cccc(Cl)c1)c1ccncc12" please.
Result :: inactive
